# System: SW948CPTH cells
# assaySummary: Cell proliferation assay, cross-resistance of SW948CPTH
# Assay type: cell-based, human
# conditionParameters: compared to SW948
quantityMeasured: cross-resistance of SW948CPTH cells (in words)

INSERT INTO assay_data (compound, datavalue) VALUES
  ('CCc1c2c(nc3ccc(O)cc13)-c1cc3c(c(=O)n1C2)COC(=O)[C@]3(O)CC [SN38]', 'cross-resistant'),
  ('COc1cc([C@@H]2c3cc4c(cc3[C@@H](O[C@@H]3O[C@@H]5CO[C@@H](C)O[C@H]5[C@H](O)[C@H]3O)[C@H]3COC(=O)[C@H]23)OCO4)cc(OC)c1O [Etoposide, etoposide]', 'not cross-resistant'),
  ('COc1cccc2c1C(=O)c1c(O)c3c(c(O)c1C2=O)C[C@@](O)(C(=O)CO)C[C@@H]3O[C@H]1C[C@H](N)[C@H](O)[C@H](C)O1 [Doxorubicin, doxorubicin]', 'No resistant'),
  ('N.N.[Cl][Pt][Cl] [Cisplatin, cisplatin]', 'No resistant');

Input CCc1c2c(nc3ccc(OC(=O)N4CCC(N5CCCCC5)CC4)cc13)-c1cc3c(c(=O)n1C2)COC(=O)[C@]3(O)CC [CPT-11] . Output cross-resistance of SW948CPTH cells (in words): cross-resistant

Input CC[C@@]1(O)C(=O)OCc2c1cc1n(c2=O)Cc2cc3ccccc3nc2-1 [CPT, camptothecin] . Output cross-resistance of SW948CPTH cells (in words): cross-resistant

Input O=c1[nH]cc(F)c(=O)[nH]1 [5-FU, 5-fluorouracil] . Output cross-resistance of SW948CPTH cells (in words): No resistant

The reported measurements were obtained from patent US20080132417A1.
